Entry source: patent US4748161A

Test: Body weight of rats in method B
Set-up: species or system male Wistar strain rats
Conditions: rat, in vivo
Parameter: Body weight during feed period, 28th day (g)
One number for each entry, in g.

Record summary for CC(=Cc1cccc(N)c1)C(=O)OC1CCC23CC24CCC2(C)C(C(C)CCC(C)=C(C)C)CCC2(C)C4CCC3C1(C)C (stereo not drawn) [Example 212] : reported Body weight during feed period, 28th day = 268

Record summary for COc1cc(C=CC(=O)OC2CCC34CC35CCC3(C)C(C(C)CCC=C(C)C)CCC3(C)C5CCC4C2(C)C)ccc1N (stereo not drawn) [Example 177] : reported Body weight during feed period, 28th day = 267

Note: attention shifts to another entry.
Record summary for CCC(=Cc1ccc(O)c(OC)c1)C(=O)OC1CCC23CC24CCC2(C)C(C(C)CCC=C(C)C)CCC2(C)C4CCC3C1(C)C (stereo not drawn) [Example 120] : reported Body weight during feed period, 28th day = 272

---

System: serum lipids and serum lipid hydroperoxide
Experiment: Pharmacological test method B for anti-hyperlipidemic activity (serum lipids, 4 weeks feeding)
Type: in vivo, male Wistar strain rats
Details: Rattus norvegicus, po, 672 h, versus control group, read-out: PL % of diff.
Would you mind labelling by change in vivo at 1 % in diet? At or over -30% is yes (1), under is no (0).

Ask: Can COc1ccc([N+](=O)[O-])cc1C(=O)OC1CCC23CC24CCC2(C)C(C(C)CCC=C(C)C)CCC2(C)C4CCC3C1(C)C (stereo not drawn) be said to have change in vivo at 1 % in diet at or above -30%?
Reply: yes (1)

Ask: Can CCCOc1ccc(N)cc1C=C(C)C(=O)OC1CCC23CC24CCC2(C)C(C(C)CCC=C(C)C)CCC2(C)C4CCC3C1(C)C (stereo not drawn) be said to have change in vivo at 1 % in diet at or above -30%?
Reply: no (0)

Ask: Can COc1ccc(N)cc1C(=O)OC1CCC23CC24CCC2(C)C(C(C)CCC=C(C)C)CCC2(C)C4CCC3C1(C)C (stereo not drawn) be said to have change in vivo at 1 % in diet at or above -30%?
Reply: no (0)

***
Ask: Can CCC(=Cc1ccc(O)c(OC)c1)C(=O)OC1CCC23CC24CCC2(C)C(C(C)CCC=C(C)C)CCC2(C)C4CCC3C1(C)C (stereo not drawn) be said to have change in vivo at 1 % in diet at or above -30%?
Reply: yes (1)

Ask: Can COc1cc(C=C(C)C(=O)OC2CCC34CC35CCC3(C)C(C(C)CCC=C(C)C)CCC3(C)C5CCC4C2(C)C)ccc1O (stereo not drawn) be said to have change in vivo at 1 % in diet at or above -30%?
Reply: no (0)

---

Assay: Body weight of rats in method B
Set-up: species or system male Wistar strain rats
Settings: rat, in vivo
Parameter: Body weight during feed period, 15th day (g)
Give bare numbers, in g.

Parameters: items (list). Returns: Body weight during feed period, 15th day for each item.
1. C=C(CCC(C)C1CCC2(C)C3CCC4C(C)(C)C(OC(=O)C(C)=Cc5ccc(O)c(OC)c5)CCC45CC35CCC12C)C(C)C (stereo not shown) [Example 118]
2. CC(=Cc1cccc(N)c1)C(=O)OC1CCC23CC24CCC2(C)C(C(C)CCC(C)=C(C)C)CCC2(C)C4CCC3C1(C)C (stereo not shown) [Example 212]
3. CCC(=Cc1ccc(O)cc1)C(=O)OC1CCC23CC24CCC2(C)C(C(C)CCC=C(C)C)CCC2(C)C4CCC3C1(C)C (stereo not shown) [Example 130]
4. CC(C)=CCCC(C)C1CCC2(C)C3CCC4C(C)(C)C(OC(=O)C(C)=Cc5ccc(N)cc5)CCC45CC35CCC12C (stereo not shown) [Example 205]
5. CCC(=Cc1ccc(O)c(OC)c1)C(=O)OC1CCC23CC24CCC2(C)C(C(C)CCC=C(C)C)CCC2(C)C4CCC3C1(C)C (stereo not shown) [Example 120]
6. CCOc1ccc(N)cc1C=CC(=O)OC1CCC23CC24CCC2(C)C(C(C)CCC=C(C)C)CCC2(C)C4CCC3C1(C)C (stereo not shown) [Example 183]
7. COc1ccc(N)cc1C(=O)OC1CCC23CC24CCC2(C)C(C(C)CCC(C)=C(C)C)CCC2(C)C4CCC3C1(C)C (stereo not shown) [Example 173]

Reply:
1. 192
2. 190
3. 194
4. 188
5. 191
6. 189
7. 190

---

Assay: Body weight of rats in method B
Parameters: species or system male Wistar strain rats
Details: rat, in vivo
Parameter: Body weight during feed period, 22nd day (g)
Answers are plain numbers, in g.

Record summary for COc1cc(C(=O)OC2CCC34CC35CCC3(C)C(C(C)CCC=C(C)C)CCC3(C)C5CCC4C2(C)C)ccc1N (stereo not shown) : reported Body weight during feed period, 22nd day = 241

Record summary for CC(=Cc1cccc(N)c1)C(=O)OC1CCC23CC24CCC2(C)C(C(C)CCC(C)=C(C)C)CCC2(C)C4CCC3C1(C)C (stereo not shown) : reported Body weight during feed period, 22nd day = 239

Record summary for CCCOc1cc(C=C(C)C(=O)OC2CCC34CC35CCC3(C)C(C(C)CCC=C(C)C)CCC3(C)C5CCC4C2(C)C)ccc1O (stereo not shown) : reported Body weight during feed period, 22nd day = 243

Parameters: items (list). Returns: Body weight during feed period, 22nd day for each item.
1. COc1ccc(N)cc1C(=O)OC1CCC23CC24CCC2(C)C(C(C)CCC(C)=C(C)C)CCC2(C)C4CCC3C1(C)C (stereo not shown)
2. CCC(=Cc1ccc(O)c(OC)c1)C(=O)OC1CCC23CC24CCC2(C)C(C(C)CCC=C(C)C)CCC2(C)C4CCC3C1(C)C (stereo not shown)
3. CC(C)=CCCC(C)C1CCC2(C)C3CCC4C(C)(C)C(OC(=O)C(C)=Cc5ccc(N)cc5)CCC45CC35CCC12C (stereo not shown)
4. COc1cc(C=CC(=O)OC2CCC34CC35CCC3(C)C(C(C)CCC=C(C)C)CCC3(C)C5CCC4C2(C)C)ccc1N (stereo not shown)

Reply:
1: 240; 2: 242; 3: 238; 4: 238

---

Tested on: serum lipids and serum lipid hydroperoxide
Experiment: Pharmacological test method B for anti-hyperlipidemic activity (serum lipids, 4 weeks feeding)
Assay type: in vivo, male Wistar strain rats
Conditions: 1% in hyperlipidemic diet, 4 weeks
Description: Pharmacological test method B for anti-hyperlipidemic acitivity (the term "method B" was used in the present specification) Male Wistar strain rats (100±1 g, each 8 rats were formed into a group except that the control group fed with a hyperlipidemic diet was formed of 16 rats) were used as test animals. A powdery diet (CE-2, supplied by Clea Japan, Inc.) was used as ordinary diet. […] Then, TC, HDL-C, TG, PL, and LPO in the serum were measured in the following manner. […]
Parameter: TG in serum (mg/dL)
One number for each entry, in mg/dL.

A selection of reference data follows.
Record summary for COc1cc(C=C(C)C(=O)OC2CCC34CC35CCC3(C)C(C(C)CCC=C(C)C)CCC3(C)C5CCC4C2(C)C)ccc1O (stereo not shown) [Example 114] : reported TG in serum = 39.0

Record summary for CC(=Cc1cccc(N)c1)C(=O)OC1CCC23CC24CCC2(C)C(C(C)CCC(C)=C(C)C)CCC2(C)C4CCC3C1(C)C (stereo not shown) [Example 212] : reported TG in serum = 59.7

Record summary for COc1cc(C=CC(=O)OC2CCC34CC35CCC3(C)C(C(C)CCC=C(C)C)CCC3(C)C5CCC4C2(C)C)ccc1N (stereo not shown) [Example 177] : reported TG in serum = 63.1

Record summary for CCOc1cc(C=C(C)C(=O)OC2CCC34CC35CCC3(C)C(C(C)CCC(C)=C(C)C)CCC3(C)C5CCC4C2(C)C)ccc1O (stereo not shown) [Example 140] : reported TG in serum = 52.4

Record summary for CC(C)=CCCC(C)C1CCC2(C)C3CCC4C(C)(C)C(OC(=O)C(C)=Cc5ccc(N)cc5)CCC45CC35CCC12C (stereo not shown) [Example 205] : reported TG in serum = 60.3

Parameters: items (list). Returns: TG in serum for each item.
1. C=C(CCC(C)C1CCC2(C)C3CCC4C(C)(C)C(OC(=O)C(C)=Cc5ccc(O)c(OC)c5)CCC45CC35CCC12C)C(C)C (stereo not shown) [Example 118]
2. CCC(=Cc1ccc(O)cc1)C(=O)OC1CCC23CC24CCC2(C)C(C(C)CCC=C(C)C)CCC2(C)C4CCC3C1(C)C (stereo not shown) [Example 130]

Reply:
1. 51.4
2. 53.4

---

Tested on: serum lipids and serum lipid hydroperoxide
Assay: Pharmacological test method A for anti-hyperlipidemic activity (serum lipids, 2 weeks feeding)
Type: in vivo, male Wistar strain rats
Details: versus control group
Parameter: TC % of diff. (%)
Answers are plain numbers, in %.

A selection of reference data follows.
Record summary for CC(C)=C(C)CCC(C)C1CCC2(C)C3CCC4C(C)(C)C(OC(=O)c5cccc(N)c5)CCC45CC35CCC12C (centres unmarked) [Example 49, cyclobranyl-m-aminobenzoate] : reported TC % of diff. = -20.6

Record summary for CC(C)=C(C)CCC(C)C1CCC2(C)C3CCC4C(C)(C)C(OC(=O)C=Cc5ccc(N)cc5)CCC45CC35CCC12C (centres unmarked) : reported TC % of diff. = -37.2

Record summary for CCOc1cc(C=CC(=O)OC2CCC34CC35CCC3(C)C(C(C)CCC(C)=C(C)C)CCC3(C)C5CCC4C2(C)C)ccc1O (centres unmarked) [Example 71, cyclobranyl-3-ethoxy-4-hydroxycinnamate] : reported TC % of diff. = 16.2

Record summary for CC(C)=CCCC(C)C1CCC2(C)C3CCC4C(C)(C)C(OC(=O)c5ccc(N)cc5)CCC45CC35CCC12C (centres unmarked) [Example 19, cycloartenyl-p-aminobenzoate] : reported TC % of diff. = -18.8

***
Record summary for CCOc1cc(C(=O)OC2CCC34CC35CCC3(C)C(C(C)CCC=C(C)C)CCC3(C)C5CCC4C2(C)C)ccc1O (centres unmarked) [Example 60, cycloartenyl-3-ethoxy-4-hydroxybenzoate] : reported TC % of diff. = 14.4
